Catalogue of viability values
measurement-description: MRP1 drug-resistance reversers in H69AR cells – cell-based, doxorubicin co-treatment, pilot screen (AID 601)
condition-notes: H69AR cells + 2 uM doxorubicin, CellTiter-Glo, 72 h; measured here: viability with 2 uM doxorubicin; at 10 µM; stronger effect = lower value
measured-parameter: viability

>>> print(df.to_string())
                                   compound  measured_parameter  value_observed
0                O=C(c1ccc2snnc2c1)N1CCOCC1           viability           88.9%
1                  Clc1ccc(SCCCCn2ccnc2)cc1           viability           88.3%
2               CN(C)c1oc(-c2ccccc2F)nc1C#N           viability           89.5%
3  COC(=O)c1cn(NC(=O)C2CCCO2)c(=O)c2ccccc12 (stereo unspecified)           viability           91.8%
4  Cc1cc(C)cc(N2C(=O)CC(N3CCOCC3)C2=O)c1 (stereo unspecified)           viability           92.2%
5  CCOC(=O)c1cc2c(=O)n3ccccc3nc2n(Cc2ccccc2)c1=N           viability           88.3%
